B1: POLD4 (parent)
chain: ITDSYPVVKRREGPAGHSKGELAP

Variants of: B1
Experiment: protein stability index of a GFP-peptide fusion (GPS, HEK-293T) (PSI 1-6); higher = more stable;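 note: lentivirally expressed fusions sorted by FACS into six bins by GFP to DsRed ratio, PSI derived from sequencing read proportions per bin multiplied by bin number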
Conditions: c terminus: a fixed tail appended
Parameter threshold = 4. Response is Satisfied when protein stability index meets or exceeds it, else Not satisfied.

(Q) Can ITDSYPVVKRREGPAGHSKGELSP [A23S] be said to have protein stability index at or above 4?
(A) Not satisfied

(Q) Can ITDSYPVVKRRETPAGHSKGELAP [G13T] be said to have protein stability index at or above 4?
(A) Not satisfied

(Q) Can ITDSYPVKKRREGPAGHSKGELAP [V8K] be said to have protein stability index at or above 4?
(A) Not satisfied

(Q) Can ITDSYPVVKRREGPAGRSKGELAP [H17R] be said to have protein stability index at or above 4?
(A) Not satisfied

(Q) Can ITDSYPVVKRQEGPAGHSKGELAP [R11Q] be said to have protein stability index at or above 4?
(A) Satisfied

(Q) Can ITDSYPVVKRREGPATHSKGELAP [G16T] be said to have protein stability index at or above 4?
(A) Not satisfied

(Q) Can ITDSYPVVKRKEGPAGHSKGELAP [R11K] be said to have protein stability index at or above 4?
(A) Not satisfied

(Q) Can ITDSYPVVKRREGPAGHSKGLLAP [E21L] be said to have protein stability index at or above 4?
(A) Not satisfied

(Q) Can ITDSYPVVKRREGPAGHSKGELEP [A23E] be said to have protein stability index at or above 4?
(A) Not satisfied

(Q) Can ITDSYPVVKRREFPAGHSKGELAP [G13F] be said to have protein stability index at or above 4?
(A) Not satisfied

These entries and their values trace back to the supplement of paper PMC10567573.
